Hello, the source for this data is ChEMBL document CHEMBL1141641, in case you need it.

Species: Homo sapiens
Test: Bronchodilation activity against leukotriene D4-induced constriction in human lung small airways assessed as remaining contraction at 10 uM after 1.5 hrs relative to control
Type: functional
Readings of Remaining contraction for the listed compounds
Express the result in % but write the number alone.

Some compounds with recorded Remaining contraction:
CN(Cc1ccc(O)c(O)c1)C(=S)NCCc1ccc(Cl)cc1; 69
Oc1ccc(CNC(=S)NCCc2ccc(Cl)cc2)cc1O; 69
Oc1ccc2c(c1)CN(C(=S)NCCc1ccc(Cl)cc1)CCC2; 40
CC1Cc2cc(O)c(O)cc2CN1C(=S)NCCc1ccc(Cl)cc1 (stereo not given); 70
Oc1cc2c(cc1O)CN(C(=S)NCCc1ccc(Cl)cc1)CCC2; 55

Task: For Oc1ccc(CCNC(=S)NCCc2ccc(Cl)cc2)cc1O , what is its reported Remaining contraction?
Result: 72

Task: Fill in: Remaining contraction of Oc1ccc2c(c1)CN(C(=S)NCCc1ccc(Cl)cc1)CC2 is ___
Result: 75

Task: Consider the compound Oc1ccc2c(c1)CCCN(C(=S)NCCc1ccc(Cl)cc1)C2 and give its measured Remaining contraction.
Result: 53

Task: Returns the measured Remaining contraction for the input compound. Input: CC1c2cc(O)c(O)cc2CCN1C(=S)NCCc1ccc(Cl)cc1 (stereo not given)
Result: 58

Task: // returns reported Remaining contraction for input Oc1ccc2c(c1)CCN(C(=S)NCCc1ccc(Cl)cc1)C2
Result: 52

Task: Endpoint output: Remaining contraction of Oc1ccc2c(c1)CN(C(=S)NCCc1ccc(Cl)cc1)C2 . Value?
Result: 41

Task: Quick one: Remaining contraction of Oc1cccc2c1CN(C(=S)NCCc1ccc(Cl)cc1)CC2 ?
Result: 73

Task: Entry Oc1cc2c(cc1O)CN(C(=S)NCCc1ccc(Cl)cc1)C2 has what Remaining contraction?
Result: 56

Task: Can you look up the measured Remaining contraction of Oc1cccc2c1CCN(C(=S)NCCc1ccc(Cl)cc1)C2 for me?
Result: 48

Task: I'd like to know its Remaining contraction. The compound in question is Oc1ccc2c(c1O)CCN(C(=S)NCCc1ccc(Cl)cc1)C2
Result: 63
